Reported TGI values follow for various compounds
# System: HS 578T breast
# ASSAY_INFO: NCI tumour cell line growth inhibition, 48 h
Provide the reading as a plain figure in µM.

Ask: Reported TGI for COC(=O)NNC(c1ccc(Cl)cc1)c1ccc(Cl)cc1 : what is it?
Reply: 48.1

Below: the item to evaluate.
Ask: Recorded TGI for O=C(Nc1ccc(F)cc1F)c1cc(Cl)ccc1O , please?
Reply: 7.25

----------
# Tested on: U251 CNS
# ASSAY_INFO: NCI tumour cell line growth inhibition, 48 h
REPORTED_PROPERTY: TGI

Ask: Recorded TGI of CC(C)(C)C(=O)OCC1OC(N=[N+]=[N-])C(OC(=O)C(C)(C)C)C(OC(=O)C(C)(C)C)C1OC(=O)C(C)(C)C (stereo not given) , please.
Reply: > 100 µM

Now consider the entry below.
Ask: Which TGI reading was recorded for the molecule CCOC(=O)c1c(C)n(Cc2ccc(Cl)cc2Cl)c2c1cc1oc(=O)c(=O)n3cnc2c13 ?
Reply: 27.9 µM

----------
# Tested on: MOLT-4 leukemia
# ASSAY_INFO: NCI tumour cell line growth inhibition, 48 h
In this section, each of the compounds is paired with its reported TGI.

Observe how each entry below is paired with its result.
Ask: Requested read-out: TGI. Entry: Cc1c2c(cc3c1C(=O)C(=O)C1=C3OC[C@@H]1C)C(C)(C)CCC2
Reply: 32 µM

Ask: Same again, this time with CC1CN(S(=O)(=O)c2oc(-c3ccc(Cl)cc3)nc2C#N)CC(C)O1 (configuration not stated)
Reply: 4.5 µM

Ask: What do you have for Cc1cc(C)c2c(n1)sc1c(N)ncnc12 ?
Reply: > 25 µM

---
Ask: Find the recorded TGI belonging to Cl/C(N=Nc1ccccc1)=N/Nc1ccccc1 and report it.
Reply: > 100 µM

Ask: Next compound: COc1ccc2c(c1)CC[C@@H]1C2CC[C@](C)(C#N)C1CC#N (some centres not stated)
Reply: > 100 µM

Ask: Could you do the same for C[N+](C)(C)C=Nc1cccc2c1CCCC2 , please?
Reply: > 100 µM

Ask: Could you do the same for COc1ccc2nc3c(c(NCCCN(C)C)c2c1)CCCC3 , please?
Reply: 14.2 µM

Ask: Field entry: COC(=O)C(CCC(=O)CCl)N1C(=O)c2ccccc2C1=O (configuration not stated)
Reply: 6.94 µM

----------
# Test system: SNB-19 CNS
# ASSAY_INFO: NCI tumour cell line growth inhibition, 48 h
TGI values for the compounds below.

Some solved cases for reference:
Ask: Given the compound O=C(Nc1ccc(F)cc1F)c1cc(Cl)ccc1O , what is its reported TGI?
Reply: > 100 µM

Ask: Now consider NS(=O)(=O)c1ccc(N2N=C3c4ccccc4CC3C2c2cccs2)cc1 (centres undefined) .
Reply: > 100 µM

Ask: Same read-out for O=c1cc(-c2ccc(O)cc2)oc2cc(O[C@@H]3O[C@H](CO)[C@@H](O)[C@H](O)[C@H]3O)cc(O)c12 ?
Reply: > 100 µM

# evaluate next
Ask: Consider the compound CSc1ncc(Br)c(Sc2nc(N)nc3nc[nH]c23)n1 and give its measured TGI.
Reply: > 100 µM

----------
# System: 786-0 renal
# ASSAY_INFO: NCI tumour cell line growth inhibition, 48 h
# TGI values compiled below

Some compounds with recorded TGI:
Ask: Which TGI is reported with 786-0 renal for this entry: CCOC(=O)c1cc2c(OCc3ccccc3)c(OC)cc3c2c(n1)N(c1ccc(OC)cc1)C(C)C3 (stereo not given) ?
Reply: > 50 µM

Ask: Can you check COc1cccc(/C(Cl)=C(\C=O)c2cccc(OC)c2)c1 next?
Reply: 38 µM

Next:
Ask: Observed TGI on 786-0 renal for Cc1ccc(-c2nnc(CCCCCCCCc3nnc(-c4ccc(C)cc4O)n3N)n2N)c(O)c1 , please.
Reply: > 100 µM

Ask: Same question for O=c1cccccc1NCCCCCCCNc1cccccc1=O please.
Reply: > 100 µM

Ask: Consider next the compound Cn1c([C@H](C#N)C(=O)c2cc(O)ccc2[N+](=O)[O-])nc2ccccc21 in the same way.
Reply: > 100 µM

----------
# Test system: UACC-257 melanoma
# ASSAY_INFO: NCI tumour cell line growth inhibition, 48 h
REPORTED_PROPERTY: GI50

Sample answers from the record:
Ask: Quick one: GI50 for CN1CCN(CCOc2ccc(-c3cnc4c(-c5cccc(F)c5)cnn4c3)cc2)CC1 ?
Reply: 2330 nM

Ask: Also CCN1CCN(c2cc(C)nc(N(CCCNc3ccnc4cc(Cl)ccc34)Cc3ccc4c(c3)OCO4)n2)CC1 , if possible.
Reply: 1720 nM

Ask: Here is the next compound: [O-]c1ccccc1C=Nc1ccc2c(c1)CCC2.[O-]c1ccccc1C=Nc1ccc2c(c1)CCC2.[O]=[U+2]=[O]
Reply: > 100000 nM

Ask: Same question, COc1ccc2c(c1OC)-c1c(c3ccc([N+](=O)[O-])cc3c(=O)n1CCCBr)C2=O this time
Reply: > 100000 nM

Ask: Now the same for O=C1C2=C(C(=O)c3cnccc31)C1C=CC2CC1 (stereo unspecified)
Reply: 1720 nM

***
Ask: What value of GI50 has been reported for the following compound? CN(C)c1ccc(/C=C2\N=C(c3ccccc3)N(c3cc(C(F)(F)F)ccc3Cl)C2=O)cc1
Reply: > 100000 nM

Ask: Would you kindly repeat that for O=C(Nc1ccc(F)cc1F)c1cc(Cl)ccc1O ?
Reply: 397 nM

----------
# Test system: NCI-H23 lung
# ASSAY_INFO: NCI tumour cell line growth inhibition, 48 h; in the data active = GI50 below about 0.43 µM; inactive = the rest
Outcomes you can answer with include only these: active, inactive

Recorded results for 5 compounds are shown here.
Ask: // param item: COc1ccc(NC(=O)/C=C(C)/C=C/C=C(C)/C=C/C2=C(C)CCCC2(C)C)cc1 ; yields the recorded call
Reply: inactive

Ask: Check Cc1ccc2nc(-c3ccc(OCC(=O)N=Nc4c(O)[nH]c5ccccc45)cc3)[nH]c2c1 too.
Reply: inactive

Ask: And O=C(/C=C/c1ccc(O)c(O)c1)NCc1c[nH]c2ccccc12 ?
Reply: inactive

Ask: Try this compound too: C=C1C(=O)O[C@H]2[C@H]1CC/C(COC(=O)NCc1ccc(OC)cc1)=C\CC[C@@]1(C)O[C@@H]21
Reply: inactive

Ask: Follow-up item: [O-]c1ccccc1C=Nc1ccc2c(c1)CCC2.[O-]c1ccccc1C=Nc1ccc2c(c1)CCC2.[O]=[U+2]=[O]
Reply: inactive

Please examine the following record next.
Ask: I'd appreciate the recorded outcome for C#CCNC(=S)N/N=C(\C)c1ccccn1 from this test.
Reply: active

----------
Below, each of the compounds is paired with its reported GI50 value.
# Test system: UO-31 renal
# ASSAY_INFO: NCI tumour cell line growth inhibition, 48 h

Ask: Given the entry O=C(/C=C/c1ccc(C(F)(F)F)cc1)Nc1ccc(C=C2c3ccccc3C(=O)c3ccccc32)cc1 , report its measured GI50.
Reply: 8470 nM

Ask: Also check CCCCCCCC(=O)OCCCC1[C@]2(C)CC[C@@]3(C)C([C@H](C)CCC=C(C)C)CC[C@]3(C)C2CC[C@]12OC2(C)C (stereo not given in full)
Reply: 31900 nM

Ask: Query CCN(Cc1cc(F)ccc1F)c1ccc(CO)c(Cl)c1 next
Reply: 2020 nM

Ask: Next record, please: Cc1ncc(C(=O)Nc2ccc(CN3CCN(C)CC3)c(C(F)(F)F)c2)cc1C#Cc1ccc(N)nc1
Reply: 161 nM

----------
# System: A498 renal
# ASSAY_INFO: NCI tumour cell line growth inhibition, 48 h
Recorded TGI values for a group of molecules are listed next.

Consider the reported TGI for these molecules:
Ask: What does the record list as TGI for COc1ccc2c(c1)CC[C@@H]1C2CC[C@](C)(C#N)C1CC#N (stereo partly specified) ?
Reply: > 100 µM

Ask: Try this molecule too: O=S(=O)(c1ccc(-c2nnc(-c3ccc(F)cc3)o2)cc1)c1ccc(-c2nnc(-c3ccc(F)cc3)o2)cc1
Reply: 58.6 µM

Ask: Another: NNc1cnn(-c2ccccc2)c(=O)c1Cl
Reply: > 100 µM

Next:
Ask: Which TGI reading was recorded for the molecule COc1ccc(C2OCCN2C)cc1 (stereo unspecified) ?
Reply: > 100 µM

Ask: Same thing, different molecule: Cc1ccc2nc(-c3ccc(OCC(=O)N=Nc4c(O)[nH]c5ccccc45)cc3)[nH]c2c1
Reply: > 100 µM

Ask: Same read-out for Cc1cc(C)c2c(n1)sc1c(N)ncnc12 ?
Reply: > 25 µM

----------
# Tested on: HS 578T breast
# ASSAY_INFO: NCI tumour cell line growth inhibition, 48 h
REPORTED_PROPERTY: TGI

Here is how some molecules turned out for TGI.
Ask: Give recorded TGI with HS 578T breast for the following molecule: COc1ccc(C2OCCN2C)cc1 (stereo not drawn)
Reply: > 100 µM

Ask: Please give the result for C=C[C@@]1(O)CCCC[C@@H]1CC(Sc1ccccc1)Sc1ccccc1 too.
Reply: 33.6 µM

Ask: Lookup COC(=O)c1cc2c(cc1Cl)SC1=NN(C)S(=O)N1S2(=O)=O (stereo not drawn)
Reply: > 100 µM

Ask: Same thing, different molecule: CC1CN(S(=O)(=O)c2oc(-c3ccc(Cl)cc3)nc2C#N)CC(C)O1 (stereo not drawn)
Reply: 27.2 µM

Ask: And what about the molecule CN(C)c1nc(=NCc2ccco2)ss1 ?
Reply: 78 µM

Ask: Note, next up: Cc1ncc(C(=O)Nc2ccc(CN3CCN(C)CC3)c(C(F)(F)F)c2)cc1C#Cc1ccc(N)nc1
Reply: 0.988 µM

Ask: Also, O=[N+]([O-])c1nccn1CC(O)CN1CCCCC1 (stereo not drawn) please.
Reply: > 100 µM

Ask: What about COC(=O)C1=C(O)C(C(=O)OC)[C@]2(O)[C@@H](C(=O)OC)[C@H]1C[C@@H](c1ccccc1)[C@@H]2C(=O)OC (stereo partly drawn) ?
Reply: 76.8 µM

Ask: Check Cn1c([C@H](C#N)C(=O)c2cc(O)ccc2[N+](=O)[O-])nc2ccccc21 too.
Reply: > 100 µM

Ask: Now the same for C[Si](C)(c1ccc(C(=O)O)cc1)c1ccc(C(=O)O)cc1
Reply: > 100 µM

New cases:
Ask: So what TGI did Cc1ccc(-c2cc(O)c3nc4ccccc4n3c2)cc1 get with HS 578T breast?
Reply: > 100 µM

Ask: // next record NCCCCC1NC(=O)C(CC(=O)O)NC(=O)CNC(=O)C(CCCN=C(N)N)NC(=O)C(N)CSSCC(C(=O)O)NC(=O)C(CC(=O)O)NC(=O)C2CCCN2C(=O)CNC1=O (stereo not drawn)
Reply: > 100 µM

Ask: Same again, this time with NC(=O)[C@@H](CC1CC1)[C@@H](CCC(F)(F)F)C(=O)N[C@H]1N=C(c2ccccc2)c2cccc(F)c2NC1=O
Reply: > 100 µM
